System: myeloid leukemia patient primary cells Pat.15
Test: cell viability (% survival relative to DMSO control); higher = less cytotoxic
Conditions: 10000 nM; 72 h
Lab note: cut-off is 20%. Strictly less in cell viability is label 1. Exactly 20% or more is label 0.

1) COC(=O)[C@]12CCC(C)(C)C[C@H]1[C@H]1C(=O)C=C3[C@@]4(C)C=C(C#N)C(=O)C(C)(C)[C@@H]4CC[C@@]3(C)[C@]1(C)CC2; label 1
2) CN(C)C(=O)n1nnnc1Cc1ccc(-c2ccccc2)cc1; label 0
3) C[C@H](NC(=O)c1sccc1OCc1ccc(Cl)cc1)c1ccccc1; label 0
4) CCC(=O)N1CCN(c2ccc(-n3c(=O)ccc4cnc5ccc(-c6cnc7ccccc7c6)cc5c43)cc2C(F)(F)F)CC1; label 1

---

Test system: HL-60
Assay: cell viability (% survival relative to DMSO control); higher = less cytotoxic
Conditions: 10 µM; 72 h; co-treatment: AZD3965 100 nM
Sorting guide: entries reporting cell viability beneath 70% go in the MET pile, the rest go in the NOT MET pile.

1. C=C(C)[C@H]1Cc2c(ccc3c2O[C@@H]2COc4cc(OC)c(OC)cc4[C@@H]2C3=O)O1; MET
2. CCOP(=O)(OCC)C(=Cc1cc(C(C)(C)C)c(O)c(C(C)(C)C)c1)P(=O)(OCC)OCC; NOT MET
3. CC(C)c1onc(-c2c(Cl)cccc2Cl)c1COc1ccc(/C=C/c2cccc(C(=O)O)c2)c(Cl)c1; NOT MET
4. O=C(O)Cn1nnc(-c2cc(N3CCC(Oc4cc(F)ccc4Br)CC3)no2)n1; NOT MET
5. CCCCN1C[C@H](O)[C@@H](O)[C@H](O)[C@H]1CO; NOT MET
6. NS(=O)(=O)c1ccc([N+](=O)[O-])cc1 [4-Nitrobenzenesulfonamide]; NOT MET

---

Test system: KCL-22
Details: 72 h
READOUT LABEL: IC50 (cell viability)

1) Oc1ccc(Nc2nc(-c3ccc(Cl)cc3)cs2)cc1 [SKI II]; 3.07 µM
2) O=C1O/C(=C/Br)CCC1c1cccc2ccccc12 (stereo unspecified) [Bromoenol Lactone]; 7.07 µM
3) O=C(O)C(=O)CBr [3-bromopyruvic acid]; > 10 µM
4) O[C@H]1[C@H]2[C@H](O)CCCN2C[C@H]1O [Swainsonine]; > 10 µM
5) CC(C)c1nc(CN(C)C(=O)N[C@H](C(=O)N[C@@H](Cc2ccccc2)C[C@H](O)[C@H](Cc2ccccc2)NC(=O)OCc2cncs2)C(C)C)cs1 [Ritonavir]; > 10 µM
6) CCCCCCCCCCCC(=O)c1c(O)c(C(=O)CCCCCCCCCCC)c(O)c(C2CC(c3ccc(O)cc3)Oc3cc(O)ccc32)c1O (stereo unspecified); > 10 µM

---

Measured cell viability accompanies every entry in the list below.
Tested on: HEL
Assay: cell viability (% survival relative to DMSO control, bortezomib = 0%); higher = less cytotoxic
Details: 100 nM; 72 h
READOUT LABEL: cell viability (%)

1. O[C@H]1[C@H]2[C@H](O)CCCN2C[C@H]1O; 108
2. O=C(O)c1cc(N=Nc2ccc(S(=O)(=O)Nc3ccccn3)cc2)ccc1O; 114
3. COc1ccc(CNC(=O)Nc2ncc([N+](=O)[O-])s2)cc1; 113
4. CC(C)(C#N)c1cc(Cn2cncn2)cc(C(C)(C)C#N)c1; 105
5. CN(C)c1cc(NC(=O)CNC(C)(C)C)c(O)c2c1C[C@H]1C[C@H]3[C@H](N(C)C)C(=O)C(C(N)=O)C(=O)[C@@]3(O)C(=O)C1C2=O (stereo partly drawn); 101
6. COc1ccc(-c2ccccc2)cc1NS(=O)(=O)c1cc(Cl)cc(Cl)c1O; 115
7. CC[C@@]1(O)C(=O)OCc2c1cc1n(c2=O)Cc2cc3c(CN(C)C)c(O)ccc3nc2-1; 0.201
8. O=C(C1CC1)N1CC[C@@H](C=C2NNC(=O)N2c2ccc(-c3ccc4occc4c3)cc2)C1; 107
